# SYSTEM: human V2 receptor (Homo sapiens, UniProt P30518)
# Sequence (P30518 whole entry): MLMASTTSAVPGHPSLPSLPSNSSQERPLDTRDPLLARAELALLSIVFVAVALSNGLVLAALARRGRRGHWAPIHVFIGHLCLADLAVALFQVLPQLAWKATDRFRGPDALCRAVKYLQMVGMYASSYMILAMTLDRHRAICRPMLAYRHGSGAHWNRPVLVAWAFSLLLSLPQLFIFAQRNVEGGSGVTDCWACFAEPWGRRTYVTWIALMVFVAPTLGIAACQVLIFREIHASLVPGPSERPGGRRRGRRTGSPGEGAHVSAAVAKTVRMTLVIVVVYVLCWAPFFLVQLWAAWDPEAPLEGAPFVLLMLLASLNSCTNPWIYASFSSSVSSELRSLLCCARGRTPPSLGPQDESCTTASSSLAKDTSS
# METHOD NOTES: Vasopressin 2 (V2) Receptor Binding
# APPLIED CONDITIONS: competition with 0.5 nM 3H-vasopressin, membranes of CHO cells expressing human V2 receptor, 2 hours at 22° C.
pIC50: −log10 of the molar value. Structures can show the parent of a compound that is named as a salt.
# Lookup of reported pIC50 keyed by entry

| MOLECULE | SYSTEM | pIC50 |
| --- | --- | --- |
| Cc1ccc(N(C)C(=O)c2ccc(NC(=O)c3ccccc3N)cc2)c(OCCCCCC(=O)O)c1 | human V2 receptor (Homo sapiens, UniProt P30518) | 5.89 |
| CCOC(=O)CCCCCOc1cc(C)ccc1N(C)C(=O)c1ccc(NC(=O)c2ccccc2OCCCN)cc1 | human V2 receptor (Homo sapiens, UniProt P30518) | 5.89 |
| CN1CCN(C(=O)CCCCCOc2ccccc2N(C)C(=O)c2ccc(NC(=O)c3ccccc3OCCCN)cc2)CC1 [Example 16, dihydrochloride] | human V2 receptor (Homo sapiens, UniProt P30518) | 5.85 |
